- STUDY TARGET: T1, MARV Ci67 GPe (Marburg virus, Ci67 strain, UniProt P35254 19-637)
- T1 sequence: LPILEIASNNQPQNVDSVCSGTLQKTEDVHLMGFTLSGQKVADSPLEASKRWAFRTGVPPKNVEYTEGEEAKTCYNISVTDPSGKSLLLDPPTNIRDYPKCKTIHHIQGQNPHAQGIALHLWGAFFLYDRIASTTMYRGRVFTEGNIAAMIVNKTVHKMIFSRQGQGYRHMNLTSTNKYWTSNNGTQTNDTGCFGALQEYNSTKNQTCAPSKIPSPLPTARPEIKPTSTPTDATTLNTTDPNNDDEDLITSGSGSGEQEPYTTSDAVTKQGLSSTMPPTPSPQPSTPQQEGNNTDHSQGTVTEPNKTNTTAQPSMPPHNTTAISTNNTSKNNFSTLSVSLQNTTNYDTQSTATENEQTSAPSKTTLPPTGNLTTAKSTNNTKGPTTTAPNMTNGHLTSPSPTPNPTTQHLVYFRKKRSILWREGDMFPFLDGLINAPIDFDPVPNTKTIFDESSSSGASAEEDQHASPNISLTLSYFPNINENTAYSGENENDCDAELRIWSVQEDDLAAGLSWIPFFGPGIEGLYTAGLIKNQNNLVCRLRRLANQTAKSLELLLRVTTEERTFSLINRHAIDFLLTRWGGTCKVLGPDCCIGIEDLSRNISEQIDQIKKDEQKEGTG
- TEST DETAILS: ELISA on coated antigen (FIG. 2)
MEASUREMENT KIND: binding result

Field: example entries. Status: answers known.
binder="CAN40G1 (antibody, V domains shown) VH: EVQLQQSGPELVKPGASVKISCRTSGYTFTEYTIHWVKQSRGKSLEWIGGINPNHGGTLYNQKFKVKATLTVDKSSSTAYMELRSLTSEDSAVYYCARFTYDYWGQGTTLTVSS VL: DIVLTQSPASLAVSLGQRASISCKASQSVDHDGDSYMNWYQQKPGQPPKLLIYATSNLESGIPARFSGSGSGTDFTLNIHPVEEEDAATYYCQQSYEVPLTFGAGTKLELK" measurement_kind="binding result" endpoint_result=binds
binder="CAN30G5 (antibody, V domains shown) VH: EVQLVESGGGLVQPKGSLKLSCAASGFAFNSYAMHWVCQAPGKGLEWVARIRIKSGNYATSYAGSVTDRFTVSRDDSQNLFYLQMNNLKTEDTAMYYCVREWEGAMDYWGQGTSVTVSS VL: DIVLTQSPLSLPVSLGDQASISCRSSQSLVHSNGNTYLHWYLQKPGQSPNLLIYKVSNRFSGVPDRFSGSGSGTDFTLKISRVEAEDLGVYFCSQSTHVPWTFGGGTKLEIK" measurement_kind="binding result" endpoint_result="no binding"
binder="CAN30G1 (antibody, V domains shown) VH: QIQLVQSGPELKKPGETVKISCKASGYTFTNYGMNWVKQAPGKGLKWMGWINTYTGKPTYVDDFKGRFAFSLETSANTAYLQINNLKNEDTATYFCESGGYDEDYWGQGTTLTVSS VL: ENVLTQSPAIMSASPGEKVTMTCSASSSVTYMHWYQQKSSTSPKLWIYDTSKLASGVPGRFSGSGSGNSYSLTISSMEAEDVATYYCFQGSGYPYTFGGGTKLEIK" measurement_kind="binding result" endpoint_result=binds
binder="CAN30G3 (antibody, V domains shown) VH: QVQLKESGPGLVAPSQSLSITCTVSGFSLTDYGITWIRQPPGKGLEWLGVIWGGGSAYYNLVLKSRLSISKDNSKSQVFLKMNSLQTDDTAMYYCAKHRTLITTAMDYWGQGISVTVSS VL: DVLMTQTPLSLPVSLGDQASISCRSSQNIVHSNGNTYLEWYLQKSGQSPKLLIYKVSNRFSGVPDRFSGSGSGTDFTLKISRVEAEDLGVYYCFQGSHFPWTFGGGTKLEIK" measurement_kind="binding result" endpoint_result="no binding"

Input CAN30G4 (antibody, V domains shown) VH: EVKLVESGGGLVKSGGSLKLSCAVSGFTFSTYAMSWVRQIPEKRLEWVATISNGGSYIYYSDSVKGRFTISRDNAKNTLYLQMSSLRSEDTAMYYCARHRESYRYDWFAYWGQGTLVTVSA VL: DVLMTQTPLSLPVSLGDQASISCRSSQNIVHSDGNTYLEWYLQKPGQSPKLLIYKFSNRFSGVPDRFSGSGSGTDFTLKISRVEAEDLGVYYCFQGSHVPPTFGAGTKLELK . Output binding result: binds

// provenance: patent US20170065702A1
